- Experimental Parameters: in ethyl acetate, 298.2 K
Readout Kind: solubility (mole fraction)

For reference, reported solubility (mole fraction) for `C=C1CC[C@H](O)C/C1=C/C=C1\CCC[C@]2(C)[C@@H]([C@H](C)CCCC(C)C)CC[C@@H]12` stands at 0.195

====

- Experimental Parameters: in PEG-400, 288.2 K
Readout Kind: solubility (mole fraction)
One number for each entry.

For reference, reported solubility (mole fraction) for `C=C1CC[C@H](O)C/C1=C/C=C1\CCC[C@]2(C)[C@@H]([C@H](C)CCCC(C)C)CC[C@@H]12` stands at 0.0222

====

- Experimental Parameters: in isopropanol, 283.2 K
Readout Kind: solubility (mole fraction)
One number for each entry.

For reference, reported solubility (mole fraction) for `C=C1CC[C@H](O)C/C1=C/C=C1\CCC[C@]2(C)[C@@H]([C@H](C)CCCC(C)C)CC[C@@H]12` stands at 0.215

====

- Experimental Parameters: in DMSO, 298.2 K
Readout Kind: solubility (mole fraction)

For reference, reported solubility (mole fraction) for `C=C1CC[C@H](O)C/C1=C/C=C1\CCC[C@]2(C)[C@@H]([C@H](C)CCCC(C)C)CC[C@@H]12` stands at 0.00723

====

- Experimental Parameters: in ethanol, 283.2 K
Readout Kind: solubility (mole fraction)
One number for each entry.

For reference, reported solubility (mole fraction) for `C=C1CC[C@H](O)C/C1=C/C=C1\CCC[C@]2(C)[C@@H]([C@H](C)CCCC(C)C)CC[C@@H]12` stands at 0.153

====

- Experimental Parameters: in isopropanol, 288.2 K
Readout Kind: solubility (mole fraction)
Give bare numbers.

For reference, reported solubility (mole fraction) for `C=C1CC[C@H](O)C/C1=C/C=C1\CCC[C@]2(C)[C@@H]([C@H](C)CCCC(C)C)CC[C@@H]12` stands at 0.225

====

- Experimental Parameters: in transcutol, 278.2 K
Readout Kind: solubility (mole fraction)
One number for each entry.

For reference, reported solubility (mole fraction) for `C=C1CC[C@H](O)C/C1=C/C=C1\CCC[C@]2(C)[C@@H]([C@H](C)CCCC(C)C)CC[C@@H]12` stands at 0.375

====

- Experimental Parameters: in DMSO, 283.2 K
Readout Kind: solubility (mole fraction)
Give bare numbers.

For reference, reported solubility (mole fraction) for `C=C1CC[C@H](O)C/C1=C/C=C1\CCC[C@]2(C)[C@@H]([C@H](C)CCCC(C)C)CC[C@@H]12` stands at 0.00533

====

- Experimental Parameters: in propylene glycol, 298.2 K
Readout Kind: solubility (mole fraction)
One number for each entry.

For reference, reported solubility (mole fraction) for `C=C1CC[C@H](O)C/C1=C/C=C1\CCC[C@]2(C)[C@@H]([C@H](C)CCCC(C)C)CC[C@@H]12` stands at 0.00337

====

- Experimental Parameters: in water, 283.2 K
Readout Kind: solubility (mole fraction)

For reference, reported solubility (mole fraction) for `C=C1CC[C@H](O)C/C1=C/C=C1\CCC[C@]2(C)[C@@H]([C@H](C)CCCC(C)C)CC[C@@H]12` stands at 4.22e-07

====

- Experimental Parameters: in transcutol, 298.2 K
Readout Kind: solubility (mole fraction)
Give bare numbers.

For reference, reported solubility (mole fraction) for `C=C1CC[C@H](O)C/C1=C/C=C1\CCC[C@]2(C)[C@@H]([C@H](C)CCCC(C)C)CC[C@@H]12` stands at 0.403

====

- Experimental Parameters: in DMSO, 288.2 K
Readout Kind: solubility (mole fraction)
Give bare numbers.

For reference, reported solubility (mole fraction) for `C=C1CC[C@H](O)C/C1=C/C=C1\CCC[C@]2(C)[C@@H]([C@H](C)CCCC(C)C)CC[C@@H]12` stands at 0.00601

====

- Experimental Parameters: in sec-butanol, 278.2 K
Readout Kind: solubility (mole fraction)
Answers are plain numbers.

For reference, reported solubility (mole fraction) for `C=C1CC[C@H](O)C/C1=C/C=C1\CCC[C@]2(C)[C@@H]([C@H](C)CCCC(C)C)CC[C@@H]12` stands at 0.161

====

- Experimental Parameters: in ethanol, 278.2 K
Readout Kind: solubility (mole fraction)

For reference, reported solubility (mole fraction) for `C=C1CC[C@H](O)C/C1=C/C=C1\CCC[C@]2(C)[C@@H]([C@H](C)CCCC(C)C)CC[C@@H]12` stands at 0.144

====

- Experimental Parameters: in ethyl acetate, 283.2 K
Readout Kind: solubility (mole fraction)
Answers are plain numbers.

For reference, reported solubility (mole fraction) for `C=C1CC[C@H](O)C/C1=C/C=C1\CCC[C@]2(C)[C@@H]([C@H](C)CCCC(C)C)CC[C@@H]12` stands at 0.131

====

- Experimental Parameters: in n-butanol, 278.2 K
Readout Kind: solubility (mole fraction)
Numbers only.

For reference, reported solubility (mole fraction) for `C=C1CC[C@H](O)C/C1=C/C=C1\CCC[C@]2(C)[C@@H]([C@H](C)CCCC(C)C)CC[C@@H]12` stands at 0.157
